The measurements presented in this section are drawn from PubChem BioAssay (NCI).

# System: SF-295 CNS
# protocol.notes: NCI tumour cell line growth inhibition, 48 h
Where a SMILES comes first, the peptide text is derived from it. [ ]: non-standard residue; d: D form. The star is where a group is joined. Bn2Val = CC(C)[C@@H](C(=O)*)N(Cc1ccccc1)Cc1ccccc1; NHPiperonyl = c1cc2c(cc1CN*)OCO2; NMeV = CN[C@H](C(=O)O)C(C)C; dNMeA = CN[C@H](C)C(=O)O

[
  {
    "compound": "Cc1ccccc1NC(=O)N/C(N)=N/c1nc(C)c(C)s1",
    "TGI": "> 100 µM"
  },
  {
    "compound": "CC(C)C(C)C(O)C(O)C(C)C1CCC2C3COC(=O)C4CC(O)C(O)CC4(C)C3CCC12C (centres undefined)",
    "TGI": "> 100 µM"
  },
  {
    "compound": "N=C1/C(=C/c2ccco2)C(=O)N=C2SC=NN12",
    "TGI": "> 100 µM"
  },
  {
    "compound": "COc1ccc(-c2cnc(SCC(=O)c3c(C)n(C)n(-c4ccccc4)c3=O)n2-c2ccc(OC)cc2)cc1",
    "TGI": "> 50 µM"
  },
  {
    "compound": "CC1(C)CC(=O)c2c([nH]c(=S)c(C#N)c2-c2ccc(Br)cc2)C1",
    "TGI": "> 100 µM"
  },
  {
    "compound": "O=C(O)COc1cc(-c2ccccc2F)nc2cc3c(cc12)OCO3",
    "TGI": "> 100 µM"
  },
  {
    "compound": "CC(C)[C@H](NC(=O)[C@H](C(C)C)N(Cc1ccccc1)Cc1ccccc1)C(=O)N(C)[C@H](C(=O)N1CCC[C@H]1C(=O)N(C)[C@H](C)C(=O)NCc1ccc2c(c1)OCO2)C(C)C (Bn2Val-V[NMeV]P[dNMeA]-NHPiperonyl)",
    "TGI": "> 100 µM"
  },
  {
    "compound": "CCN1C(=O)/C(=C\\c2coc3ccccc3c2=O)SC1=S",
    "TGI": "> 100 µM"
  },
  {
    "compound": "Nc1c(C(=O)c2cccc(C(O)(CO)CO)c2)cnn1-c1ccc(F)cc1",
    "TGI": "> 25 µM"
  }
]
